B1: tRNA (parent)
chain: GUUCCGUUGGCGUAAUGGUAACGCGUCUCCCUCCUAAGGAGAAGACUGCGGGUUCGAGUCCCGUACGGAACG

variants of: B1; test: yeast fitness relative to wild type (ratio to wild type); higher = fitter; tRNA-Arg(CCU), competitive growth, 37 C, YPD
Variants at the floor of the assay were thinned out.
RECORDED_METRIC: yeast fitness

> print(dat)
                              residue.string  recorded.metric  data.value
 1  GUUCCGUUGGCGCAAUGGUAACGCGUCACCCUCCUAAGGAGAAGACUGCGGGUUCGAGUCCUGUAAGGAACG [U13C U28A C62U C66A]    yeast fitness       ≤ 0.5
 2  GUUCCGUUGGCGUAAUGGUAACGCGUCUCCCUCCUAAGCAGAAGACUGCGGGUUCGAGCCCCGCACGGACCG [G39C U59C U64C A70C]    yeast fitness       ≤ 0.5
 3  GGUCCGUUGGCGUAAUGGUAACGCGUCUCCCUCCUACGGAGAAGACUGCGGGUCCGAGUCCCGUACGGAACG [U2G A37C U54C]    yeast fitness       ≤ 0.5
 4  GUUGUGUUGGCGUAAUGGUAACGCGUCUCCCUCCUAAGAAGAACACUGCGGGUUCGAGUCCCGUACGGAACG [C4G C5U G39A G44C]    yeast fitness       ≤ 0.5
 5  GUUCCGUUGGAGUAUUGGUAUCGCGUCUCCCUCCUCUGGAGAAGACUGCGGGUUUGAGUCCCGUACGGAACG [C11A A15U A21U A36C A37U C55U]    yeast fitness       ≤ 0.5
 6  GUUCCGUUGGAGUAAUGGUAACGCGACUCCCUCCUAAGGAGAAGACUGCGGGUACGAGUCCCGUACGGAACG [C11A U26A U54A]    yeast fitness       ≤ 0.5
 7  GUUCAGUUGGCGGGAUGGUAACGCGUCUCCCACCUAAGGAGUAGACUGCGGAUACGAGUGCCGUACGGAACG [C5A U13G A14G U32A A42U G52A U54A C60G]    yeast fitness       ≤ 0.5
 8  GUUCCGUUGGCGUUAUGGAAACGCGUCUCCCUCCUCAGGAGAAGACUGCGGGUUCGACUCCCGUACGGUACG [A14U U19A A36C G58C A69U]    yeast fitness       0.555
 9  GUUCCGUUGGCGUAAUGGUAACGCGUCUCCCUCCUAACGAGAAGACUGUGGGUACGAGUCCCGUCCGGAACG [G38C C49U U54A A65C]    yeast fitness       ≤ 0.5
10  GUUCCGUUAGCGUAAUGGUAACGCGUCUCCCUCCUAAGGAGAAGACUGCGGGUUCGAGUCCGGUACGGAACG [G9A C62G]    yeast fitness       0.896
11  GUUCCGUUGGCGUAAUGGUAACGCGUCUCCCUCCUAAAGAGAAGACUGCGGGUUCGAGUCCCGUUCGUAACG [G38A A65U G68U]    yeast fitness       0.665
12  GUUCCCUUGGCGAAAUGGUAACGCGUCUCCCUCAUAAGGAGAAGACUGCGGGUUCGAGUCCCGUACGGAACG [G6C U13A C34A]    yeast fitness       ≤ 0.5
13  GUUCCGUUAGUGUAAUGGUAACGCGUCUCCUUCCUAAGGAGAAGACUGCGGGUUCGAGACCCGUACGGAACG [G9A C11U C31U U59A]    yeast fitness       ≤ 0.5
14  GUUGCGUUGGCGUAAUGGUAACGCGUGUCCCUCCUAAGGAGAAGACUGCGGGUUCGAGUCCCGUACGGAACG [C4G C27G]    yeast fitness       0.816
15  GUUCCGUUGGCGUAAUAGUAACGCGUCUCCCUCCUAAGGAGAAGACUGCGGGUUCGAGUCCUGUACGGAACG [G17A C62U]    yeast fitness       0.736
16  GUUCCGUUGGCGUAAUGGUAACGCGUCUCCCUCCUAAGGAGGAGACUGCGGGUUCGAGUCCCGUACGCGACG [A42G G68C A69G]    yeast fitness       0.563
17  GUUCCGUUGGCGUAAUGGUAACGCGUCUCCCUCGUACGGAGAAGACUGCGGGUUCGAGUCCAGUACGGAACG [C34G A37C C62A]    yeast fitness       ≤ 0.5
18  GUUCCGUUGGCGUAAUGAUGACGCGUCUCCCUCCCAAGGAGAAGACUGCGGGUUCGAAUGCCGUACGGAACG [G18A A20G U35C G58A C60G]    yeast fitness       0.558
19  GUUCUGUUGACGUAAUGGUAACGCGUCUCCCUCCUAAGGAGAAGACUGCGGGUUCGAGUCCCGUAUGGAACG [C5U G10A C66U]    yeast fitness       0.574
20  GUUCAGUUGGCGUAAUGGUAAUGCGUCUCCCUCCUAAGAAGAAGACCGCGGGUUCGAGUCUCGUACGGAACG [C5A C22U G39A U47C C61U]    yeast fitness       ≤ 0.5
21  GUUCCGUUGGCGUAAUGGUAACGCGUCUCCCUCCUAAGGAGAACUCUGCGGGCUCGAGUCCCGUACGGAACG [G44C A45U U53C]    yeast fitness       0.605
22  GUUCCGUUGGCGUAAUCGUAACGCGUCUCGCUGCUAAGGAGAAGACUGCGGGUUCGAGUCCCGUACGGAACG [G17C C30G C33G]    yeast fitness       ≤ 0.5
23  GUUCAGUUGGCGUAAUGGUAACGCGUCUCCCUCCUAAGGAGAAGACUGAGGGUUCGAGUCCCGUACGCAACG [C5A C49A G68C]    yeast fitness       0.536
24  GUUCCGUUGGCGUAAUGGUGGCGCGUCUCCCUCCUAAGGAGAAGACUGCGGGUUCGAGUCCCGUACGGAACG [A20G A21G]    yeast fitness       0.986
25  GUUCCGUUGGCGUAAUGGUAACGCGUCUCACUCCUACGGAAAUCACUGCGGGUUCGAGUCCCGUACGGAGCG [C30A A37C G41A A43U G44C A70G]    yeast fitness       ≤ 0.5
26  GUACCGUUGGCGUAAUGGUAACGCGUGUCCCUCCUAAGGAGACGACUGCGGGUUCGAGUCCCGUACGGAACG [U3A C27G A43C]    yeast fitness       ≤ 0.5
27  GUUCCGUUGGCGUAAUGGUAAUGCGUCUCCCUCCUAAGGGGAAGAUUGCGGGUUCGAGUCCCAUACGGAACG [C22U A40G C46U G63A]    yeast fitness       ≤ 0.5
28  GUUCCGUCGGCGUAAUGGUAACGCGUCUCCCUCCUAAGGAGGAGACUGGGGGUUCGAGUCCAGUACGGAACG [U8C A42G C49G C62A]    yeast fitness       ≤ 0.5
29  GUUCCAUUGGCGUAAUGGUAACGCGUUUACCUCCUAAGGAGAAGACUGCGGGUUCGACUCCCGUAUGGAACG [G6A C27U C29A G58C C66U]    yeast fitness       ≤ 0.5
30  GUUCCAUUGGCGUAAUGGUGGCGCGUCUGCCUCCUAAGGAGAAGACUGCGGGUUCGAGUCCCGUACGGAACG [G6A A20G A21G C29G]    yeast fitness       ≤ 0.5
